# log10 of Ki annotations
target_or_test_system: human histamine H3 receptor (Homo sapiens)
Construct: One microgram of supercoiled H3 receptor cDNA was added to the cells and mixed; expressed in transfected cells; membranes prepared from cell pellets
Sequence (Q9Y5N1 whole entry): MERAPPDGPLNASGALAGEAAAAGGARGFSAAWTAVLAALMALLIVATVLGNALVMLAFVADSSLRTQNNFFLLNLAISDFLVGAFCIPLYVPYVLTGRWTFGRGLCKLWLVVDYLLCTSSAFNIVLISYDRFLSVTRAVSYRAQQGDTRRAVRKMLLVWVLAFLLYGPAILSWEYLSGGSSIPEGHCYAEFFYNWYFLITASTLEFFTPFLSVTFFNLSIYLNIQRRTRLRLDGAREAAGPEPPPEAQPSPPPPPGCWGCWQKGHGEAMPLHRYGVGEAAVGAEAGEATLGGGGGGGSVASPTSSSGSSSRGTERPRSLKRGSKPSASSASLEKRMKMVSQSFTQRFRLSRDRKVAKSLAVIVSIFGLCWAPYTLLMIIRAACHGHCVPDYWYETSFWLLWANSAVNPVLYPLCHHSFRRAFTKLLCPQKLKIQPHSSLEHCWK
measurement_protocol: {3H}-N-methylhistamine binding
Structures can show the parent of a compound that is named as a salt.
property_name: log10 of Ki (log10 of the value in nM)

>>> value("CCC(C)N1CCN(C(=O)c2ccc(CN3CCCCC3)cc2)CC1 (centres unmarked)")
-0.05
>>> value("CC(C)N1CCN(C(=O)c2ccc(CNc3cc(C(F)(F)F)ccn3)cc2)CC1 [Example 44, dihydrochloride]")
1.93
>>> value("CCCCCCC(C)N1CCN(C(=O)c2ccc(CN3CCCCC3)cc2)CC1 (centres unmarked)")
1.72
>>> value("CCC(C)N1CCN(C(=O)c2ccc(CN3CCCC3)cc2)CC1 (centres unmarked)")
0.00
>>> value("CCN(CC)Cc1ccc(C(=O)N2CCN(C(C)C)CC2)cc1 [Example 57, dihydrochloride]")
0.78
